# TEST_SUMMARY: label from the status in PepcDB records;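 also: failed if final PepcDB status was selected cloned or expressed and not failed if soluble or beyond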

SEQUENCE_TEXT	protein production
MPAKRRSNARPARAWPTCLSRGSSAVKRVHVAAAVIRDASGKILIARRADTQHQGGLWEFPGGKVEPGEAVEAALARELQEELGIAVTAARPLIKVQHDYPDKQVLLDVWEVSAFSGEPHGAEGQPLAWVTARELADYEFPAANQPIVAAARLPAQYLITPEGLETPTLLRGMQKAVAQGCKLIQLRAPGGYDPQYRDLAVDAVGLCAGKAQLMLKGPFEWLGDFPSAGWHITAAQLRKYASAGRPFGKDRWLAASCHNAEELSLAQQMDVDFVTLSPVQPTQTHPDAQPLGWQQAEQLISGFNKPVYLLGGVGPAECQQAWAAGAQGVAGIRAFWPQD	failed
MLVGSQLIEIVIDSLRYENLKEILDEMFRDEVQKLKYFLEDVKEEDEELYNKIVDALKLFKENYEIEDIKIPKKIRVFLVKNNILFLNPQKGSLKPQSYLVWNAIKMLL	failed
MTAHPPRPELQIDIVSDVVCPWCIVGFRQLDQALAATGVLARLRWHPFELNPQMGPEGQNLREHIMEKYGSTPEQSAEARARLTAIGAELGFTFNFTDDSRIVNTFAAHQLLDWAEGQGRQHPLKQALFAAYFTDGRDVSDLSVLLDAVEAAGLDREAAQTALTSGAHQAPVREKQKFWAQHGISGVPSMVFGGKYLLTGAQGADTYAQVIQRCLAEA	not failed
MIALPAWLTDERLSEDIEPLLRQTDNESLERLAAEAQAVTLRRFGRVISLYTPLYLSNFCSSGCVYCGFASDRRSPRRKLDTDEIEKELLAMKALGVSDVLLLTGERTNSVGFDYLRRAVDIAARHMPRVAVEAFPMSVAEYRGLAECGCTGLTIYQETYDPDHYRELHRWGPKQDFLERLETPERAITGGIRSVGIGALLGLSEPVGEALAVLRHARYLCKTYWKAGVTVSFPRIRPQEGGFQPSFTVSDRFLARMIFAFRIGMPDVDLVLSTRESSNFRDGMAGLGITRMSIASRTTVGGYVEKETAGASQFEVSDNRSVEAFCAALRAKDLEPVFKNWDAAYNNPLPAEECT	failed
DLQAYLQAHYDVLEGKIQLDINGTEIQKGVWVGSGAIIEPGAILNPPCVIGDNCRIESGAVIDSLSVIGNNNVIERDSSVKRSVIWDGNYIEYGSK	failed
MIIGIDVGGTNTDAAIVSDEIKTIKLPNEAGIGGILKEISKEANLIEEKVVVSTSWPLNLIISKFSESRTLSLVIPGPGLNYSEYGEVLKGYVNHRGDVVEDIDEYEIAAIFRENSYDNVAISSKFSVRNGSLEDRVAEIVRNYV	failed
MVRTRLFGTFPHLSRSAQAQRNMTTTYANADPGELEKFSELAHRWWDPNSEFKPLHEINPLRLDWIQSTAPLAGKRVVDVGCGGGILSESMARAGANVKGIDLSRKALRVADLHSLEAGVAVDYEEIAAEALAAREPGSFDVVTCMEMLEHVPDPASVVRACATLVKPGGHVFFSTIHRNAKAYLLAVIGAEYVLNMLPRGTHDYAKFIRPSELAGFARTAGLEPAQLRGLEYNPLTGRYALTHDTSVNYLIATRRPDAP	failed
MRKDETSNTSPDISAAQPASALRYHLRPPRRNDGAAIHQLVSECPPLDLNSLYAYLLLCEHHAHTCVVAESPGGRIDGFVSAYLLPTRPDVLFVWQVAVHSRARGHRLGRAMLGHILERQECRHVRHLETTVGPDNQASRRTFAGLAGERGAHVSEQPFFDRQAFGGADHDDEMLLRIGPFTHPPH	failed
TGEREYIKKLEPMLKELGWWGKAKDENGNEVQLGSPRRLRTILRTNKITAYHAARYAQQMENVDEQPYWRYVAVNDSRTRASHLALHGKIYRADDPIWQTMYPPNDWGCRCRVEALS	failed
MNLPILPTISTSFIVISAILIAIGWRQIWKRKIESHKKVMLAAAFFALAFFIIYASRTIFIGNTAFGGPDSIKIYYTIFLIFHINLATIGGILGLVQIITAFKDKFKVHRFVGPIASIVWFCTAITGVAVYLLLYVLYPGGETTSLLKATFGL	failed
MAKKRGKPEIDWTDDDKEIIWVSKSEIKRDSEHLKKLGAELIELTPQNLEKIPLDEDLKYAIRQAQSFKLEARRRQIQFIGKLLRNRDSAPIQDALDKVKNRHNQQQALLHKLELIRDQLINMGDASLNQLLSEYPQLDRQHLRNLIRMAQKEKQINKPAKNYHEILQYLKSELIV	not failed
MSLSDRVKKIESFTLTLPRETPYLGKPRPGEEPNGRGYLVRKANRTVYPTFDRSVLVRIETENGAVGWGETYGLVAPRATMEIIDDLLADFTIGRDPFDAAAIHDDLYDLMRVRGYTGGFYVDALAAIDIALWDLAGKLAGLPVCKLLGGQRRDRIAAYISGLPEDTRAKRAELAAAWQAKGFSSFKFASPVADDGVAKEMEILRERLGPAVRIACDMHWAHTASEAVALIKAMEPHGLWFAEAPVRTEDIDGLARVAASVSTAIAVGEEWRTVHDMVPRVARRALAIVQPEMGHKGITQFMRIGAYAHVHHIKVIPHATIGAGIFLAASLQASAALANVDCHEFQHSIFEPNRRLLVGDMDCLNGEYVVPTGPGLGVEPSKEAQGLLKKHEGHHHHHH	not failed
MGVIVPGNSSPVPALSAGRSTVEGYDPKLHDPFFDGVSQQLADKGFITAAADDLITWARTGSLMWMTFGLACCAVEMMQASMPRYDLERYGFAPRASPRQSDVMIVAGTLTNKMAPALRKVYDQMPEPRYVISMGSCANGGGYYYYSYSVVRGCDRVVPVDIYVPGCPPTAEALVYGVLQLQKKIRRTGTIER	failed
